- System: SNB-19
- method-summary: NCI tumour cell line growth inhibition, 48 h
Activity calls are given as the source filed them. Cut-off read from the data, not from the text of the source: active = GI50 up to about 1.1 µM and inactive = higher.

[
  {
    "compound": "CC(C)C(Br)CCC1=CCC(Br)(Br)C1 (stereo unspecified)",
    "GI50": "18 µM (inactive)"
  },
  {
    "compound": "CCOC(=O)c1cnc2c(ccc3ncccc32)c1NCCCN(CC)CC",
    "GI50": "50.1 µM (inactive)"
  },
  {
    "compound": "O=C(O)COc1c(Cl)cc(Cl)c(C(c2c(Cl)cc(Cl)c(OCC(=O)O)c2Cl)C(Cl)(Cl)Cl)c1Cl",
    "GI50": "> 100 µM (inactive)"
  },
  {
    "compound": "Cc1cccc(C)c1NC(=O)C1=NC(=S)NC(c2ccccc2)C1c1nc2ccccc2s1 (stereo unspecified)",
    "GI50": "> 100 µM (inactive)"
  },
  {
    "compound": "C/C(=N\\NC(N)=S)c1ccc2c(c1)Sc1ccccc1O2",
    "GI50": "6.55 µM (inactive)"
  },
  {
    "compound": "O=c1cc(/N=N/c2ccc(O)cc2)[nH]c(=O)[nH]1",
    "GI50": "> 100 µM (inactive)"
  },
  {
    "compound": "O=C1C2C3C4C1C1C2[C@H](OCc2ccccc2)C3C1[C@H]4OCc1ccccc1 (stereo partly specified)",
    "GI50": "67.9 µM (inactive)"
  },
  {
    "compound": "CC(=O)Oc1ccccc1 [ACETIC ACID PHENYL ESTER]",
    "GI50": "> 100 µM (inactive)"
  },
  {
    "compound": "COC1=CC(=O)c2nc3ccccc3c3ccnc1c23",
    "GI50": "12.4 µM (inactive)"
  },
  {
    "compound": "Nc1nc(NNc2ccc(Cl)c(Cl)c2)cc(=O)[nH]1",
    "GI50": "72.6 µM (inactive)"
  },
  {
    "compound": "Cc1cccc2c1C(=O)C(C1OC(=O)c3ccccc31)C2 (stereo unspecified)",
    "GI50": "> 100 µM (inactive)"
  }
]

// data source = ChEMBL document CHEMBL1201862
